Hello, the source for this data is ChEMBL document CHEMBL1649134, in case you need it.

Answer each item with its documented MIC.
# System: Klebsiella pneumoniae
# test.details: Antimicrobial activity against multidrug resistant Klebsiella pneumoniae isolate 7 by broth dilution method
# Assay type: functional
Give just the number in µg/mL; leave the unit off.

MIC value, target or system Klebsiella pneumoniae, for CO/N=C(\C(=O)N[C@@H]1C(=O)N2C(C(=O)[O-])=C(C[N+]3(C)CCCC3)CS[C@H]12)c1csc(N)n1 : 64

MIC value, target or system Klebsiella pneumoniae, for CO[C@@]1(NC(=O)Cc2cccs2)C(=O)N2C(C(=O)O)=C(COC(N)=O)CS[C@@H]21 : 16

MIC value, target or system Klebsiella pneumoniae, for C[C@@H](O)[C@H]1C(=O)N2C(C(=O)O)=C(SCCNC=N)C[C@H]12 [IMIPENEM ANHYDROUS] : 0.5
